// provenance: PubChem BioAssay (NCI)

# Tested on: M14 melanoma
# Measurement Description: NCI-60 one-dose screen, 48 h (100 = growth as untreated, 0 = no growth, -100 = all killed)
# Condition Summary: 10 µM unless noted
The panel holds about 83,000 compounds, 20% with a hit somewhere; the sample as a whole holds those more often.
Recorded growth values for a group of compounds are listed next.

- Compound: "Cc1ccc(-c2nc3nc(-c4ccc(Cl)cc4)nc(N4CCCNCC4)c3o2)cc1"
  System Name: "M14 melanoma"
  growth, %: -75.9
- Compound: "C=C(C)[C@@H]1CC[C@]2(C(=O)N3CCN(C)CC3)CC[C@]3(C)[C@H](CC[C@@H]4[C@@]5(C)CC(CCCNC(C)=O)(CCCNC(C)=O)[C@H](OC(C)=O)C(C)(C)[C@@H]5CC[C@]43C)[C@@H]12"
  System Name: "M14 melanoma"
  growth, %: 104
- Compound: "Nc1nc(N)c2c(n1)NC(c1ccc(Cl)cc1)CC(c1cccc(Nc3ccncc3)c1)=N2 (stereo not drawn)"
  System Name: "M14 melanoma"
  growth, %: 35.4
- Compound: "CC/C=C\\C/C=C\\C[C@H](O)C/C=C1/C(=O)C=C[C@@H]1C/C=C\\CCCC(=O)OC"
  System Name: "M14 melanoma"
  growth, %: -23
- Compound: "CSc1nnc(-c2cc3c([nH]c4ccccc43)c(-c3cccc(O)c3)n2)n1-c1ccc(C)cc1"
  System Name: "M14 melanoma"
  growth, %: 6.07
- Compound: "COC(=O)/C=C1/SC(N2N=C(c3cccs3)CC2c2ccc(F)cc2)=NC1=O (stereo not drawn)"
  System Name: "M14 melanoma"
  growth, %: 50.8
- Compound: "O=C1/C(=C/c2cn(-c3ccccc3)nc2-c2ccccc2)SC(=S)N1c1ccccc1"
  System Name: "M14 melanoma"
  growth, %: 97.2
- Compound: "C=C(C)[C@@H]1CC[C@]2(C)[C@H](CC(=O)N[C@H]3[C@@H]4C[C@](C)(C(=O)OC)CC[C@]4(C)CC[C@]32C)[C@@]1(C)CCC#N"
  System Name: "M14 melanoma"
  growth, %: 86.8

====

# Tested on: M14 melanoma
# Measurement Description: NCI-60 one-dose screen, 48 h
# Condition Summary: 10 µM unless noted
About 83,000 compounds went through this panel and 20% of them were active in at least one assay; those are over-represented in the sample as a whole. Active and inactive are the calls of the source. How the source made its calls: active means growth percent below 10; inactive means the rest.
Classes used: active, inactive

- Compound: "COc1ccc(CCNC(=O)COc2cc3c(Nc4ccc(F)c(Cl)c4)ncnc3cc2OC)cc1OC"
  System Name: "M14 melanoma"
  Discrete Label: "inactive"
- Compound: "Cc1ccc(Nc2nc(-c3cc(O)c(C)c(C)c3O)cs2)cc1"
  System Name: "M14 melanoma"
  Discrete Label: "inactive"
- Compound: "CCOC(=O)c1nc2c3ccccc3cnn2c1C(=O)c1ccc(OC)cc1"
  System Name: "M14 melanoma"
  Discrete Label: "inactive"
- Compound: "O=C1OCC2=C1C(c1cccc([N+](=O)[O-])c1)c1cc3c(cc1N2CCO)CCC3 (centres undefined)"
  System Name: "M14 melanoma"
  Discrete Label: "active"
- Compound: "CCN1C(=S)N(CC)C2C1NC(=S)N2/N=C/C=C/c1ccccc1 (centres undefined)"
  System Name: "M14 melanoma"
  Discrete Label: "inactive"
- Compound: "Nc1n[nH]c2cccc(C#Cc3cccc(NC(=O)c4ccc(N5CCOCC5)c(C(F)(F)F)c4)c3)c12"
  System Name: "M14 melanoma"
  Discrete Label: "active"
- Compound: "CCN1CCN(C(=O)[C@]23CC[C@@H](C)[C@H](C)[C@@H]2C2=CC[C@@H]4[C@@]5(C)CCC(=O)C(C)(C)[C@@H]5CC[C@@]4(C)[C@]2(C)CC3)CC1"
  System Name: "M14 melanoma"
  Discrete Label: "active"
- Compound: "Cc1ccc(-c2nc3nc(-c4ccc(Br)cc4)nc(N4CCCNCC4)c3o2)cc1"
  System Name: "M14 melanoma"
  Discrete Label: "active"
- Compound: "COc1ccc(-c2cc3cnc4ccccc4c3oc2=O)cc1"
  System Name: "M14 melanoma"
  Discrete Label: "inactive"

====

Recorded growth values for a group of molecules are listed next.
# Test system: SNB-75 CNS
# Measurement Description: NCI-60 one-dose screen, 48 h (100 = growth as untreated, 0 = no growth, -100 = all killed)
# Condition Summary: 10 µM unless noted
# Protocol: Growth inhibition of the SNB-75 human tumor cell line is measured as a screen for anti-cancer activity. Cells are grown in 96 well plates and exposed to the test compound for 48 hours. Compounds are tested at a single concentration, which is 10^-5 M for most compounds. The reported endpoint is percent growth (GI% or GIPRCNT), where numbers from 0 - 100% represent growth inhibition, and numbers from -100% - 0 represent cell death. For example, a value of 40 represents 60% growth inhibition. […]
Compounds without any hit were thinned out: in the full panel of roughly 83,000, 20% have a hit. The source made the active and inactive calls. How the source made its calls: active means growth percent below 10; inactive means the rest.

- Molecule: "C=C(C)[C@@H]1CC[C@]2(C)[C@H](CC(=O)N[C@H]3[C@@H]4C[C@](C)(C(=O)OC)CC[C@]4(C)CC[C@]32C)[C@@]1(C)CCC#N"
  growth: "96.5% (inactive)"
- Molecule: "Nc1ccc(/C=N/Nc2ccnc3c(N)cccc23)c2cccnc12"
  growth: "-99.7% (active)"
- Molecule: "CN1C(=O)/C(=C/c2ccc(C(=O)Nc3ncc(Cc4ccccc4Cl)s3)cc2)SC1=S"
  growth: "69.4% (inactive)"
- Molecule: "CCN(c1cc(-c2ccc(CN3CCC(/C=C/S(=O)(=O)c4ccccc4)CC3)cc2)cc(C(=O)NCc2c(C)cc(C)[nH]c2=O)c1C)C1CCOCC1"
  growth: "37.5% (inactive)"
- Molecule: "CCOC(=O)c1c(-c2ccc(OC)cc2)c(C#N)c2c(C#N)c(N)nn2c1N"
  growth: "43.4% (inactive)"
- Molecule: "CCOC(=O)c1c(-c2ccc(C)cc2)c(C#N)c(=O)n(-c2cccc(C(F)(F)F)c2)c1N"
  growth: "76.3% (inactive)"
- Molecule: "CCOc1ccccc1NC(=O)c1cc2ccccc2cc1O"
  growth: "87.7% (inactive)"
- Molecule: "O=C1CCCCN1CCCCC#Cc1cccc(C#Cc2cccnc2)c1"
  growth: "79.5% (inactive)"
- Molecule: "COc1ccc(C(=O)c2ccc(OC)c(OC)c2OC)cc1"
  growth: "-3.95% (active)"
- Molecule: "CCCNNC(=O)/C=C/c1ccc(CNCCc2c(C)[nH]c3ccccc23)cc1"
  growth: "56.9% [2.5 µM] (inactive)"

====

# Tested on: SF-295 CNS
# Measurement Description: NCI-60 one-dose screen, 48 h (100 = growth as untreated, 0 = no growth, -100 = all killed)
# Condition Summary: 10 µM unless noted
The panel holds about 83,000 compounds, 20% with a hit somewhere; the sample as a whole holds those more often.
We label by threshold. Values of growth strictly beneath 90% are 1 (yes). Values of 90% and up are 0 (no).

- Molecule: "COc1ccc(/C=N/NC(=O)CN2CCN(c3cc4c(cc3F)c(=O)c(C(=O)O)cn4C3CC3)CC2)cc1O"
  Discrete Label: "0 (no)"
- Molecule: "COC(=O)c1c2c(c(C)[n+]([O-])c1C)C(=O)C(NCCN1CCOCC1)=CC2=O"
  Discrete Label: "1 (yes)"
- Molecule: "Nc1ccc(S(=O)(=O)c2ccc(N)cc2)cc1"
  Discrete Label: "0 (no)"
- Molecule: "COc1ccc(/C(C)=C(\\c2ccc(OCCN3CCCCCC3)cc2)c2ccc(OC(=O)C3CCCCC3)cc2)cc1"
  Discrete Label: "1 (yes)"
- Molecule: "CN1CCN(Cc2ccc(NC(=O)c3cccc(C#Cc4c(N)ncc5ccc(F)cc45)c3)cc2C(F)(F)F)CC1"
  Discrete Label: "1 (yes)"

====

# Test system: OVCAR-8 ovarian
# Measurement Description: NCI-60 one-dose screen, 48 h
# Condition Summary: 10 µM unless noted
# Protocol: Growth inhibition of the OVCAR-8 human tumor cell line is measured as a screen for anti-cancer activity. Cells are grown in 96 well plates and exposed to the test compound for 48 hours. Compounds are tested at a single concentration, which is 10^-5 M for most compounds. The reported endpoint is percent growth (GI% or GIPRCNT), where numbers from 0 - 100% represent growth inhibition, and numbers from -100% - 0 represent cell death. For example, a value of 40 represents 60% growth inhibition. […]
This is part of a sample that, as a whole, favours compounds with a hit. Of some 83,000 tested, about 20% had one in any assay. The source made the active and inactive calls. How the source made its calls: active means growth percent below 10; inactive means the rest.
Classes used: class 1 for active, class 0 for inactive

- Molecule: "CCN1C(=O)N(c2ccccc2)C2NC(=S)N(/N=C/C=C/c3ccccc3)C21 (centres undefined)"
  Discrete Label: "class 1"
- Molecule: "COc1ccc(CCNC(=O)COc2cc3c(Nc4ccc(F)c(Cl)c4)ncnc3cc2OC)cc1OC"
  Discrete Label: "class 0"
- Molecule: "Nc1nc(Nc2cccnc2)sc1C(=O)c1ccccc1F"
  Discrete Label: "class 0"
- Molecule: "COc1cccc(C2C(C#N)=C(N)Oc3cc(OCCCCCC[P+](c4ccccc4)(c4ccccc4)c4ccccc4)ccc32)c1 (centres undefined)"
  Discrete Label: "class 1"
- Molecule: "C/C=C(/C)C(=O)O[C@@H]1CC(C)(C)CC2C34OC(=O)[C@@]21CC[C@@]3(C)[C@]1(C)CCC2C(C)(C)C(=O)CC[C@]2(C)C1C[C@@H]4Cl (some centres undefined)"
  Discrete Label: "class 0"
- Molecule: "CC(C)(C)c1cc(C(C)(C)c2ccccc2)cc(Cc2cc(C(C)(C)c3ccccc3)cc(C(C)(C)C)c2O)c1O"
  Discrete Label: "class 0"
- Molecule: "Cc1ccc(-c2nc(C#N)c(S(=O)(=O)N(C)C)o2)cc1"
  Discrete Label: "class 0"
- Molecule: "C=C(C)[C@@H]1CC[C@]2(C)[C@H](CC(=O)N[C@H]3[C@@H]4C[C@](C)(C(=O)OC)CC[C@]4(C)CC[C@]32C)[C@@]1(C)CCC#N"
  Discrete Label: "class 0"
- Molecule: "O=C(NNC(=S)Nc1ccccc1)c1ccncc1"
  Discrete Label: "class 0"
